Attribution: patent US20060204492A1

target: T1, integrin αvβ3, purified from human placenta (human, UniProt P06756 31-1048; P05106 27-788); experiment: SPR (BIAcore), purified Fab over immobilized αvβ3
T1 construct: mature; Native heterodimer, immobilized on ELISA plates or on the BIAcore chip; biotinylated in capture lift and capture ELISA screens; also called αvβ3 receptor; vitronectin receptor
T1 sequence (P06756 31-1048, form in doubt, chain 1 of 2): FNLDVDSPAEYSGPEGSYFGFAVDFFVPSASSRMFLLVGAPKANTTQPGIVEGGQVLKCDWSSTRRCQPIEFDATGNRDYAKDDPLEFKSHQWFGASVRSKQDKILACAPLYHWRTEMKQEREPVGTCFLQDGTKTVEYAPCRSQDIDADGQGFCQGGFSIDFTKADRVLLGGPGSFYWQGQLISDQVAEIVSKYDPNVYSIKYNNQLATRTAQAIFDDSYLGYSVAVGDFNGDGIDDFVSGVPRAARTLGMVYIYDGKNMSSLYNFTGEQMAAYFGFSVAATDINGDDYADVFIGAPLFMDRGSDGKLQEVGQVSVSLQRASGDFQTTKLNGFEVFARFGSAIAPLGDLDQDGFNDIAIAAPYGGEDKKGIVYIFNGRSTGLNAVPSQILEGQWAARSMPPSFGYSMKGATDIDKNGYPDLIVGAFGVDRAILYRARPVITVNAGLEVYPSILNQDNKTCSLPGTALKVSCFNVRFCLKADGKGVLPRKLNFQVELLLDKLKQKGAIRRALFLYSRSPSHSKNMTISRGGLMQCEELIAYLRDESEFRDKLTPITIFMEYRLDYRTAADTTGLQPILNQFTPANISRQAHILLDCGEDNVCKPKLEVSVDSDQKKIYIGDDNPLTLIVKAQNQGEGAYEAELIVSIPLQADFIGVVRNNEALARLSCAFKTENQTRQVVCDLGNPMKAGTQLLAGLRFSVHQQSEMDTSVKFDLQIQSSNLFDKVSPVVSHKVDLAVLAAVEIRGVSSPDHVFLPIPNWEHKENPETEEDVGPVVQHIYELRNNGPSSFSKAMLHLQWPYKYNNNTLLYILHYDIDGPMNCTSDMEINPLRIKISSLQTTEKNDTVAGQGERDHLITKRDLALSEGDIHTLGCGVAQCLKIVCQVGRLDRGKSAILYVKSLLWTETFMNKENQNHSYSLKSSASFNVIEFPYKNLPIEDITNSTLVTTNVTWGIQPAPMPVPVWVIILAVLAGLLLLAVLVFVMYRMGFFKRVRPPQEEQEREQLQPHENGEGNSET
T1 sequence (P05106 27-788, form in doubt, chain 2 of 2): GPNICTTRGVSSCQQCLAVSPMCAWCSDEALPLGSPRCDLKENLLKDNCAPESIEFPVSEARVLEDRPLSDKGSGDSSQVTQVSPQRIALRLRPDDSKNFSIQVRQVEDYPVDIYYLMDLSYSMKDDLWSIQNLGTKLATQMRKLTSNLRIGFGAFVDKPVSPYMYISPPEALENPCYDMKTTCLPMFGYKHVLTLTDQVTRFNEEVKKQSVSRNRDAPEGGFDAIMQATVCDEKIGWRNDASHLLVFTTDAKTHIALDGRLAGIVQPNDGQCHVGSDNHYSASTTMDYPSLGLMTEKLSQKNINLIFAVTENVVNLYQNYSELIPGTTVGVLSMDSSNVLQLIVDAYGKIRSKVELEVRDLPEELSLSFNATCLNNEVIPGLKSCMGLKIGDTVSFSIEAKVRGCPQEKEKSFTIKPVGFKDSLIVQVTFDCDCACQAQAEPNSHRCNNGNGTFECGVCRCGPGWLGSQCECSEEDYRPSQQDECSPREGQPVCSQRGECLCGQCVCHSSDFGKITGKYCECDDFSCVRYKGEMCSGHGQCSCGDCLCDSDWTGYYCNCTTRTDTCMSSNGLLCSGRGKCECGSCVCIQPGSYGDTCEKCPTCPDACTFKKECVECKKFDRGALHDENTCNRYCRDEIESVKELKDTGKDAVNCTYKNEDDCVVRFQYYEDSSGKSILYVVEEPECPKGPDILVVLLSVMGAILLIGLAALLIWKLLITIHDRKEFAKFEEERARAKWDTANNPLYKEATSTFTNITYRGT
Collected kon values appear next to each entry.
Express the result in M⁻¹ s⁻¹ but write the number alone.

Binder | kon / M⁻¹ s⁻¹
LM609 grafted antibody variant T102 (Fab, V domains shown, Fab) VH: QVQLVESGGGVVQPGRSLRLSCAASGFTFSSYDMSWVRQAPGKGLEWVAKVSSGGGSTYYLDTVQGRFTISRDNSKNTLYLQMNSLRAEDTAVYYCARHNYGSFATWGQGTTVTVSS VL: EIVLTQSPATLSLSPGERATLSCQASQSISNHLHWYQQRPGQAPRLLIRYRSQSISGIPARFSGSGSGTDFTLTISSLEPEDFAVYYCQQSGSWPHTFGGGTKVEIK | 246000

Give the reported value of kon for this record: LM609 grafted antibody variant H97 (Fab, V domains shown, Fab) VH: QVQLVESGGGVVQPGRSLRLSCAASGFTFSSYDMSWVRQAPGKGLEWVAKVSSGGGSTYYLDTVQGRFTISRDNSKNTLYLQMNSLRAEDTAVYYCARHNHGSFAYWGQGTTVTVSS VL: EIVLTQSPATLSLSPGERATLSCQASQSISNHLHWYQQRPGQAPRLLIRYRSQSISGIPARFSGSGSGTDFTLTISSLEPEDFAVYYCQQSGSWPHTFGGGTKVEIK 220000

Give kon for LM609 grafted antibody variant N92 (Fab, V domains shown, Fab; also called LM609 grafted antibody having Asn at position 92 of light chain CDR3) VH: QVQLVESGGGVVQPGRSLRLSCAASGFTFSSYDMSWVRQAPGKGLEWVAKVSSGGGSTYYLDTVQGRFTISRDNSKNTLYLQMNSLRAEDTAVYYCARHNYGSFAYWGQGTTVTVSS VL: EIVLTQSPATLSLSPGERATLSCQASQSISNHLHWYQQRPGQAPRLLIRYRSQSISGIPARFSGSGSGTDFTLTISSLEPEDFAVYYCQQSNSWPHTFGGGTKVEIK 236000
